# credit: PubChem BioAssay (NCI)

# method.notes: NCI Yeast Anticancer Drug Screen. Data for the sgs1 mgt1 strain (AID 161);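 note: 0% = growth of cultures given vehicle only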
# details: S. cerevisiae sgs1 mgt1 strain, at 50.0 µM, hits give high values
About 79,000 compounds went through this panel and 15% of them were active in at least one assay; those are over-represented in the sample as a whole.
Measured growth inhibition, listed per entry.
Note: unit % is implicit; provide only the numeric part.

These solved cases illustrate the format of a correct answer.
INSERT INTO results (compound, unit_string, observed_value) VALUES
  ('CCOC(=O)C1CCC/C1=N/Nc1ccc([N+](=O)[O-])cc1[N+](=O)[O-] (centres undefined)', '%', 3.25),
  ('C=CCOC(=O)COC(=O)C(C)(C)OC(C)=O', '%', -1.7);

Which growth inhibition reading was recorded for the compound S=c1[nH]c(=S)c2nnn(-c3ccccc3)c2[nH]1 ?
-31.5

Tell me the measured growth inhibition of CC(Cc1ccccc1)NN (centres undefined) , please.
16.5

If you can, please state the reported growth inhibition value of c1ccc(B2OB(c3ccccc3CN3CCCC3)OB(c3ccccc3CN3CCCC3)O2)c(CN2CCCC2)c1 .
0.05

Suppose we examine the compound CCCCN(CCCC)c1ccc(N=C(C#N)c2ccc(N(CCCC)CCCC)cc2)cc1 ; what growth inhibition value has been reported?
14

Param item = O=C(O)COc1cc([N+](=O)[O-])c(Cl)cc1Cl ; retrieve measured growth inhibition.
18.6

Reported growth inhibition, compound O=C1NCCCC1CCO (centres undefined) : ____
-7.95

Bench note: what growth inhibition did COc1cc(C2=N/C(=C\C=C\c3ccccc3)C(=O)O2)cc(OC)c1OC show?
21.9

---

// reported growth inhibition per item
# method.notes: NCI Yeast Anticancer Drug Screen. Data for the bub3 strain (AID 167)
# details: S. cerevisiae bub3 mutant strain, at 50.0 µM, hits give high values
This is part of a sample that, as a whole, favours compounds with a hit. Of some 79,000 tested, about 15% had one in any assay.
The reply should be a number in %, with the unit left off.

Some molecules with known growth inhibition results, for comparison:
INSERT INTO assay_data (molecule, observed_value) VALUES
  ('CC(C)=CCC1=C(OCC(=O)O)C(=O)c2ccccc2C1=O', 20.1),
  ('CCN(CC)CC(C)=O', -11.9),
  ('C/C=C\COC(=O)C(C)OC(=O)OCC (configuration not stated)', -0.65),
  ('CS(=O)(=O)Nc1ccc(C(=O)CCN2CCCCCC2)cc1', -27.5),
  ('CCOC(=O)c1cc(Cl)nc(Cl)c1', 4.5),
  ('N#CNC(=O)c1ccc(Cl)cc1', -14.4);

Dear colleague, I am looking for the recorded growth inhibition of the following molecule: COc1ccc2ccccc2c1C(=O)/C=C/c1ccccc1
58.8

Reported growth inhibition, molecule CN(Cc1cnc2nc(N)nc(N)c2n1)c1ccc(C(=O)NC(CCC(=O)OCc2cc3c(cc2Cl)OCO3)C(=O)OCc2cc3c(cc2Cl)OCO3)cc1 (configuration not stated) : ____
-8.6

---

# method.notes: NCI Yeast Anticancer Drug Screen. Data for the bub3 strain (AID 167)
# details: S. cerevisiae bub3 mutant strain, at 50.0 µM, hits give high values
The panel holds about 79,000 compounds, 15% with a hit somewhere; the sample as a whole holds those more often.
The compounds listed here are annotated with their growth inhibition.
Reply with just the number (in %).

The following compounds have reported results that may help.
INSERT INTO assay_data (compound, unit_string, observed_value) VALUES
  ('CCCCCCCCCCCCSC1=C(OC)C(=O)C(OC)=C(OC)C1=O', '%', -1.35),
  ('CCOC(=O)c1c[nH]c2cc3c(cc2c1=O)CCS3', '%', 9),
  ('O=CC(O)C(O)C(O)C1CNC(=S)O1 (configuration not stated)', '%', 4.05),
  ('O=C1CN(N2C(=O)CSC2C23CC4CC(CC(C4)C2)C3)C(=O)CN1c1ccccc1 (configuration not stated)', '%', -2.6);

// query growth inhibition value for entry Nc1cc(N)n(C2=NCCN2)n1
0

Fill in: growth inhibition of c1ccc2cc3ccccc3cc2c1 is ___
-0.85

---

# method.notes: NCI Yeast Anticancer Drug Screen. Data for the cln2 rad14 strain (AID 165);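 note: 0% = growth equal to vehicle treated cultures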
# details: S. cerevisiae cln2 rad14 strain, at 50.0 µM
The panel holds about 79,000 compounds, 15% with a hit somewhere; the sample as a whole holds those more often. The source made the active and inactive calls. Rule as the data show it: active = growth inhibition above about 70%; inactive = the rest.
Respond only with the outcome that fits, drawn from label 1 (active), label 0 (inactive)

Could you please tell me the result logged for CC(=O)Nc1c(Cl)cccc1[N+](=O)[O-] in this assay?
label 0

Short answer needed: outcome of this test for Fc1ccc(-c2ccc(F)cc2)cc1 ?
label 0

Could you kindly confirm the outcome this assay logged for CCCCN(C)CCNc1cc(C)nc(Nc2nc3ccc(Cl)cc3[nH]2)n1 ?
label 1

---

# method.notes: NCI Yeast Anticancer Drug Screen. Data for the cln2 rad14 strain (AID 165);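 note: 0% = growth equal to vehicle treated cultures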
# details: S. cerevisiae cln2 rad14 strain, at 50.0 µM, hits give high values
The panel holds about 79,000 compounds, 15% with a hit somewhere; the sample as a whole holds those more often.
I would appreciate it if you labelled entries Yes when growth inhibition is -10% or higher, otherwise No.

For this molecule, is measured growth inhibition -10% or higher? C(=C\c1nc2ccccc2nc1/C=C/c1ccccc1)/c1ccccc1
No

---

# method.notes: NCI Yeast Anticancer Drug Screen. Data for the bub3 strain (AID 167)
# details: S. cerevisiae bub3 mutant strain, at 50.0 µM, hits give high values
The panel holds about 79,000 compounds, 15% with a hit somewhere; the sample as a whole holds those more often. Calls of active or inactive are those of the source. Cut-off read from the data, not from the text of the source: active = growth inhibition above about 70%; inactive = the rest.
observation.type: growth inhibition

Consider the reported growth inhibition for these compounds:
INSERT INTO assay_data (compound, observation_type, observed_value) VALUES
  ('CC(=O)NCC(O)C(O)C(O)C(O)COC(=O)c1ccccc1 (stereo not given)', 'growth inhibition', '-2.15% (inactive)'),
  ('COc1ccc2ccccc2c1', 'growth inhibition', '1.35% (inactive)'),
  ('COc1ccccc1/C(=N\OCCC(=O)O)c1cccs1', 'growth inhibition', '-1.25% (inactive)'),
  ('C=CCc1cc(Br)ccc1O', 'growth inhibition', '-17.4% (inactive)'),
  ('O=c1[nH]c2cc(Cl)ccc2nc1/C=C(\O)c1ccccc1', 'growth inhibition', '-19.1% (inactive)'),
  ('Cc1ccc(S(=O)(=O)OCC2(COS(=O)(=O)c3ccc(C)cc3)CCC2)cc1', 'growth inhibition', '16% (inactive)');

Give the measured growth inhibition of Cc1ccc(C)c(NC(=O)C(=O)C2C(=O)C3=C(CC2(C)C)Nc2ccccc2S3)c1 (stereo not given) .
-28.4% (inactive)

Bench note: what growth inhibition did CN=C(N)NC show?
8.55% (inactive)

What value of growth inhibition has been recorded for this entry: Cc1cc2c(cc1C)NC1=C(N2)OC(c2ccc(Cl)cc2)C1=O (stereo not given)
21.1% (inactive)

Fill in: growth inhibition of O=c1[nH]c2cc3ccccc3cc2c2ccccc12 is ___
-1.7% (inactive)

Which measured growth inhibition value corresponds to c1cc2cc3c4c5c(cc6ccc7cc8cc9c%10c8c8c7c6c5c8c5c%10c(c1C9N1CCOCCOCCOCCOCCOCC1)c2c45)C3 (stereo not given) ?
3.35% (inactive)

---

Below: a set of entries, each annotated with reported growth inhibition.
# method.notes: NCI Yeast Anticancer Drug Screen. Data for the rad50 strain (AID 155);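 note: 0% = growth of vehicle-only cultures of the same strain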
# details: S. cerevisiae rad50 strain growth inhibition; at 50.0 µM; hits give high values
Compounds without any hit were thinned out: in the full panel of roughly 79,000, 15% have a hit.
Hi! Could you send only the number? It should be in %, unit omitted.

Look over these answered cases.
INSERT INTO assay_data (molecule, observed_value) VALUES
  ('O=[N+]([O-])c1ccc(/C=C2/c3ccccc3-c3nc4ccccc4cc32)cc1', 21.9),
  ('O=S(=O)(O)C(Nc1ccc(Cl)cc1)c1ccccc1 (stereo not given)', 0.15),
  ('COc1cccc(-c2nsc(=O)o2)c1', 41.5);

With those in mind, consider the next molecule.
Please report the recorded growth inhibition for ClC1CC/C=C\CC/C=C/CCC1Cl (stereo not given) .
55.7

---

# method.notes: NCI Yeast Anticancer Drug Screen. Data for the mec2-1 strain (AID 157)
# details: S. cerevisiae mec2-1 strain, at 50.0 µM
About 79,000 compounds went through this panel and 15% of them were active in at least one assay; those are over-represented in the sample as a whole. The source made the active and inactive calls. Cut-off read from the data, not from the text of the source: active = growth inhibition above about 70%; inactive = the rest.
Outcome field: choose from active, inactive

# example entries with known answers
INSERT INTO measurements (compound, qualitative_label) VALUES
  ('CCCC/C(C)=N/NC(N)=S', 'inactive'),
  ('O=C1OC(C(O)C(O)C(O)CO)C(O)C1O (stereo not drawn)', 'inactive');

# fetch the recorded call for COc1ccc(NC2=CC(=O)c3ccccc3C2=O)cc1 here
inactive

For this compound, state the assay outcome: CCN(CC)Cc1cc(NC(C)=O)ccc1O
inactive

Please share the test call associated with O=c1[nH]c(CCCc2ccccc2)c(Br)c(=O)[nH]1 .
inactive

Assay outcome for CC(C)=NNC=N/C(C#N)=C(\N)C#N : what was it?
inactive

In this assay, the call recorded for COc1nc(C(=O)O)c(Cl)c(OC)c1Cl was what?
inactive

What outcome does the record of this test show for CCCCCCCCCCCCSSC(=S)OC(C)C ?
inactive

Can you look up the reported call for O=C=Nc1ccccc1[N+](=O)[O-] for me?
inactive

Can you look up the reported call for CCN(CC)P1(=O)C=C(C)C2C1C1C=C(C)C2P1(=O)N(CC)CC (stereo not drawn) for me?
inactive

In this assay, the call recorded for COc1ccc(NC(=O)c2cc3ccccc3cc2OC(=O)NC(C)(C)C)cc1 was what?
inactive

Could you check what this test reported for O=C(/C=C/C(=O)NCCc1ccccc1)NCCc1ccccc1 ?
inactive
